test system: MCF10A; test: one-nucleolus phenotype percent effect (relative to siNT 0% and siNOL11 100%); higher = more cells with one nucleolus (ribosome biogenesis inhibition); conditions: 20 nM; 72 h
Reported one-nucleolus phenotype percent effect values for the following sequences.
Respond numerically; units are % and should not be typed.

As a guide, the following entries are already answered.
>>> observed_measurement("CAAAAAUCUCAAUUACUUUUGC [hsa-miR-548c-3p]")
-9.26
>>> observed_measurement("AGGUAUUGCCACCCUUUCUAGU [hsa-miR-5681b]")
90.7
>>> observed_measurement("CAUCCGUCCGUCUGUCCAC [hsa-miR-4800-3p]")
-2.39
>>> observed_measurement("CCAAAACUGCAGUUACUUUUGC [hsa-miR-548o-3p]")
-18
>>> observed_measurement("UUUCUAUGUUAGUUGGAAG [hsa-miR-7159-3p]")
5.4

Requested read-out one-nucleolus phenotype percent effect, target or system MCF10A, entry UACCCAGUCUCCGGUGCAGCC [hsa-miR-3130-5p]
44

Requested read-out one-nucleolus phenotype percent effect, target or system MCF10A, entry ACUCAGUCAUGGUCAUU [hsa-miR-4264]
-7.28

Requested read-out one-nucleolus phenotype percent effect, target or system MCF10A, entry UGCCUAGGCUGAGACUGCAGUG [hsa-miR-3135a]
2.6

Requested read-out one-nucleolus phenotype percent effect, target or system MCF10A, entry UCAAAUGCUCAGACUCCUGUGGU [hsa-miR-105-5p]
-6.5

Requested read-out one-nucleolus phenotype percent effect, target or system MCF10A, entry GCUGAACUGGGCUGAGCUGGGC [hsa-miR-4539]
-1.34

Requested read-out one-nucleolus phenotype percent effect, target or system MCF10A, entry UGGGGAAGGCGUCAGUGUCGGG [hsa-miR-4725-3p]
26

Requested read-out one-nucleolus phenotype percent effect, target or system MCF10A, entry ACCCGCCCGUCUCCCCACAG [hsa-miR-7108-3p]
-20.7

Requested read-out one-nucleolus phenotype percent effect, target or system MCF10A, entry ACACUUGUUGGGAUGACCUGC [hsa-miR-6500-3p]
22.5

----------
test system: MCF10A; experiment: 5+ nucleoli phenotype percent effect (relative to siNT 0% and siKIF11 100%); higher = more cells with five or more nucleoli; conditions: 20 nM; 72 h
EXPERIMENTAL_READOUT: 5+ nucleoli phenotype percent effect (%)
Respond numerically; units are % and should not be typed.

What 5+ nucleoli phenotype percent effect value was documented for this sequence, CAGGAGGCAGUGGGCGAGCAGG [hsa-miR-4695-5p] ?
14.2

What 5+ nucleoli phenotype percent effect value was documented for this sequence, ACUGGACUAGGAGUCAGAAGG [hsa-miR-378i] ?
-12.9

What 5+ nucleoli phenotype percent effect value was documented for this sequence, AAGAAGAGACUGAGUCAUCGAAU [hsa-miR-5197-3p] ?
26.1

What 5+ nucleoli phenotype percent effect value was documented for this sequence, UGGAGACGCGGCCCUGUUGGAGU [hsa-miR-139-3p] ?
-24.5

What 5+ nucleoli phenotype percent effect value was documented for this sequence, AAACCGUUACCAUUACUGAGUU [hsa-miR-451a] ?
12.9

What 5+ nucleoli phenotype percent effect value was documented for this sequence, CUCCGUUUGCCUGUUUCGCUG [hsa-miR-1468] ?
30.4

----------
system: MCF10A; assay: 5+ nucleoli phenotype percent effect (relative to siNT 0% and siKIF11 100%); higher = more cells with five or more nucleoli; conditions: 20 nM; 72 h
EXPERIMENTAL_READOUT: 5+ nucleoli phenotype percent effect (%)
Respond numerically; units are % and should not be typed.

>>> observed_measurement("AGCGUGGGAUGUCCAUGAAGUCAG [hsa-miR-6853-5p]")
90.6
>>> observed_measurement("GACCUGGACAUGUUUGUGCCCAGU [hsa-miR-619]")
64.8

Now for the sequence whose 5+ nucleoli phenotype percent effect we want.
What 5+ nucleoli phenotype percent effect value was documented for this sequence, UGCCUGUCUACACUUGCUGUGC [hsa-miR-214-5p] ?
-42.1

----------
tested on: MCF10A; assay: one-nucleolus phenotype percent effect (relative to siNT 0% and siNOL11 100%); higher = more cells with one nucleolus (ribosome biogenesis inhibition); conditions: 20 nM; 72 h
EXPERIMENTAL_READOUT: one-nucleolus phenotype percent effect (%)
Respond numerically; units are % and should not be typed.

As a guide, the following entries are already answered.
>>> observed_measurement("AGCAGUGUUUGUUUUGCCCACA [hsa-miR-6499-3p]")
16.7
>>> observed_measurement("CAACCCUAGGAGAGGGUGCCAUUCA [hsa-miR-652-5p]")
12.5

Now for the sequence whose one-nucleolus phenotype percent effect we want.
Requested read-out one-nucleolus phenotype percent effect, target or system MCF10A, entry UGGUGGGUGGGGAGGAGAAGUGC [hsa-miR-6769b-5p]
23.2

----------
Reported percent viability values for the following sequences.
test system: MCF10A; test: percent viability (nuclei count relative to siNT); higher = more viable cells; conditions: 20 nM; 72 h
Put down the number, then write its unit next to it.

>>> observed_measurement("GGUAGUGAGUUAUCAGCUAC [hsa-miR-6073]")
"71%"
>>> observed_measurement("UUUCCCUUCAGAGCCUGGCUUU [hsa-miR-4755-5p]")
"52.8%"
>>> observed_measurement("CGCACCUGCCUCUCACCCACAG [hsa-miR-6804-3p]")
"74.2%"
>>> observed_measurement("UGUCAGUUUGUCAAAUACCCCA [hsa-miR-223-3p]")
"86.9%"
>>> observed_measurement("UCGAGGACUGGUGGAAGGGCCUU [hsa-miR-3131]")
"47.9%"

Now for the sequence whose percent viability we want.
Requested read-out percent viability, target or system MCF10A, entry GGGAAGAGCUGUACGGCCUUC [hsa-miR-6077]
37.4%

----------
Reported 5+ nucleoli phenotype percent effect values for the following sequences.
tested on: MCF10A; test: 5+ nucleoli phenotype percent effect (relative to siNT 0% and siKIF11 100%); higher = more cells with five or more nucleoli; conditions: 20 nM; 72 h
Respond numerically; units are % and should not be typed.

As a guide, the following entries are already answered.
>>> observed_measurement("UGCAAAAGUAAUCACAGUUUUU [hsa-miR-548f-5p]")
23.9
>>> observed_measurement("AGUUGCCUUUUUGUUCCCAUGC [hsa-miR-4423-5p]")
-0.303
>>> observed_measurement("AAUGUGGACUGGUGUGACCAAA [hsa-miR-4491]")
20.6
>>> observed_measurement("GAAGGCAGCAGUGCUCCCCUGU [hsa-miR-3714]")
-29.2
>>> observed_measurement("UGGCCCAAGACCUCAGACC [hsa-miR-7155-3p]")
18.5
>>> observed_measurement("UCUGAGGCCUGCCUCUCCCCA [hsa-miR-4649-3p]")
-6.15

What 5+ nucleoli phenotype percent effect value was documented for this sequence, UGUGACCCUAGAAUAAUUAC [hsa-miR-7973] ?
-4.82

What 5+ nucleoli phenotype percent effect value was documented for this sequence, AUCUGGAGGUAAGAAGCACUUU [hsa-miR-516b-5p] ?
48.7

What 5+ nucleoli phenotype percent effect value was documented for this sequence, CCUGGGCAGCGUGUGGCUGAAGG [hsa-miR-3187-5p] ?
41.1

What 5+ nucleoli phenotype percent effect value was documented for this sequence, AGGAGAAGUAAAGUAGAA [hsa-miR-4434] ?
49.4

What 5+ nucleoli phenotype percent effect value was documented for this sequence, UUGCAGCUGCGGUUGUAAGGU [hsa-miR-5047] ?
-30.3

What 5+ nucleoli phenotype percent effect value was documented for this sequence, CACCGGGGAUGGCAGAGGGUCG [hsa-miR-4655-5p] ?
15

----------
tested on: MCF10A; assay: percent viability (nuclei count relative to siNT); higher = more viable cells; conditions: 20 nM; 72 h
EXPERIMENTAL_READOUT: percent viability (%)
Respond numerically; units are % and should not be typed.

>>> observed_measurement("AGGGAUCGCGGGCGGGUGGCGGCCU [hsa-miR-638]")
88
>>> observed_measurement("CUUGGCACCUAGCAAGCACUCA [hsa-miR-1271-5p]")
91.1
>>> observed_measurement("GGGGGCCGAUACACUGUACGAGA [hsa-miR-128-2-5p]")
91.1
>>> observed_measurement("AGCCCCUGCCCACCGCACACUG [hsa-miR-210-5p]")
101

Requested read-out percent viability, target or system MCF10A, entry CAAAGUGCUCAUAGUGCAGGUAG [hsa-miR-20b-5p]
58.4

Requested read-out percent viability, target or system MCF10A, entry UCACCAGCCCUGUGUUCCCUAG [hsa-miR-1226-3p]
31.7

Requested read-out percent viability, target or system MCF10A, entry AACACACCUAUUCAAGGAUUCA [hsa-miR-362-3p]
47.7
